- System: NCI/ADR-RES ovarian
- METHOD_SUMMARY: NCI tumour cell line growth inhibition, 48 h; in the data active = GI50 below about 0.43 µM; inactive = the rest
Field 'call' accepts active, inactive

## Task Please let me know the test result on file for `CC/C(=C(\CC)c1ccc(OCCN(CC)CC)cc1)c1ccc(OCCN(CC)CC)cc1` .
## Result inactive

## Task Please let me know the test result on file for CC(=O)OCC1OC(S[As](C)C)C(OC(C)=O)C1OC(C)=O (stereo not given) .
## Result active

## Task Please let me know the test result on file for `COc1ccc2c(c1)Cc1c-2c(NN)nc2ccccc12` .
## Result inactive

## Task Please let me know the test result on file for `Cc1cc(C)nc(SC2=C(Nc3cccc(Cl)c3)C(=O)N(Cc3ccccc3)C2=O)n1` .
## Result inactive

## Task Please let me know the test result on file for `COc1cc(C(=O)n2nc(N3CCN(C)CC3)c3cc(N)ccc32)cc(OC)c1OC` .
## Result inactive

## Task Please let me know the test result on file for `Cc1ccc(NC(=O)c2ccnc(N3CCCC3)c2)cc1-c1ccc(C(=O)NCC2CC2)cc1` .
## Result inactive

## Task Please let me know the test result on file for CC[C@H](C)C(=O)O[C@H]1CCC=C2C=C[C@H](C)C(CCC3C[C@@H](O)CC(=O)O3)[C@H]21 (stereo not given in full) .
## Result inactive

## Task Please let me know the test result on file for `C#C[C@@]1(O)[C@@H](CO)O[C@@H](n2cc(F)c3c(N)ncnc32)[C@@H]1O` .
## Result active

## Task Please let me know the test result on file for `O=C1/C(=C/C(Cl)=C/c2ccccc2)SC(=S)N1CCc1ccc(O)cc1` .
## Result inactive

## Task Please let me know the test result on file for CC(C)=CCC/C(C)=C/CC/C(=C/COP(=O)(OCc1ccc([N+](=O)[O-])o1)N(C)CCCCCl)C(C)(C)C (stereo not given) .
## Result inactive

---

- Test system: MDA-MB-231 breast
- METHOD_SUMMARY: NCI tumour cell line growth inhibition, 48 h; in the data active = GI50 below about 0.43 µM; inactive = the rest
Field 'call' accepts active, inactive

## Task Please let me know the test result on file for `C#C[C@@]1(O)[C@@H](CO)O[C@@H](n2cc(F)c3c(N)ncnc32)[C@@H]1O` .
## Result active

## Task Please let me know the test result on file for `COc1ccc2c(c1)Cc1c-2c(NN)nc2ccccc12` .
## Result inactive

## Task Please let me know the test result on file for CN(C)CC1CCn2c(c(C3=C(c4cn(C)c5ccccc45)C(=O)NC3=O)c3ccccc32)C1 (centres undefined) .
## Result inactive

## Task Please let me know the test result on file for `COc1ccc(-c2nc(-c3nc4cc(C)c(C)cc4[nH]3)cc3c2[nH]c2ccccc23)cc1` .
## Result inactive

## Task Please let me know the test result on file for `COc1ccc(Nc2ccnc(NCCCNc3ccnc4cc(Cl)ccc34)n2)cc1` .
## Result inactive

## Task Please let me know the test result on file for `COC(=O)c1c2c(c(C)[n+]([O-])c1C)C(=O)C(NCc1ccc(F)c(F)c1)=CC2=O` .
## Result inactive

## Task Please let me know the test result on file for `O=C1/C(=C/C(Cl)=C/c2ccccc2)SC(=S)N1CCc1ccc(O)cc1` .
## Result inactive

## Task Please let me know the test result on file for `Cc1cc(C)nc(SC2=C(Nc3cccc(Cl)c3)C(=O)N(Cc3ccccc3)C2=O)n1` .
## Result inactive

## Task Please let me know the test result on file for `COc1cc(C(=O)n2nc(N3CCN(C)CC3)c3cc(N)ccc32)cc(OC)c1OC` .
## Result inactive

---

- System: OVCAR-4 ovarian
- METHOD_SUMMARY: NCI tumour cell line growth inhibition, 48 h
I'd appreciate it if you could supply GI50 values for the items below.

The recorded GI50 for entry `CO[C@H]1CC[C@@]2(C)C(=CC[C@H]3[C@@H]4C[C@H](O)C[C@@]4(C)CC[C@@H]32)C1` equals 8.82 µM

The recorded GI50 for entry `COc1ccc2c(c1)Cc1c-2c(NN)nc2ccccc12` equals 31.1 µM

The recorded GI50 for entry `COC(=O)c1c2c(c(C)[n+]([O-])c1C)C(=O)C(NCc1ccc(F)c(F)c1)=CC2=O` equals 1.03 µM

The recorded GI50 for entry `O=C(/C=C\Sc1nccc(C(F)(F)F)n1)c1ccc(Br)cc1` equals 20.4 µM

The recorded GI50 for entry CC[C@H](C)C(=O)O[C@H]1CCC=C2C=C[C@H](C)C(CCC3C[C@@H](O)CC(=O)O3)[C@H]21 (stereo partly drawn) equals 22.7 µM

The recorded GI50 for entry `COc1ccc(-c2nc(-c3nc4cc(C)c(C)cc4[nH]3)cc3c2[nH]c2ccccc23)cc1` equals 6.98 µM

The recorded GI50 for entry [N-]=[N+]=CC(=O)OCC(N)C(=O)O (stereo not drawn) equals 4.29 µM

The recorded GI50 for entry Cn1cc(C2=C(c3c4n(c5ccccc35)CCC(CN)CC4)C(=O)NC2=O)c2ccccc21 (stereo not drawn) equals 1.96 µM

---

- Tested on: SN12C renal
- METHOD_SUMMARY: NCI tumour cell line growth inhibition, 48 h; in the data active = GI50 below about 0.43 µM; inactive = the rest
Field 'call' accepts Yes = active, No = inactive

## Task Please let me know the test result on file for [N-]=[N+]=CC(=O)OCC(N)C(=O)O (centres undefined) .
## Result No

## Task Please let me know the test result on file for `COc1cnc2c(c1)C(=O)c1c-2n(CCCN2CCN(C)CC2)c(=O)c2cc(Cl)ccc12` .
## Result No

## Task Please let me know the test result on file for `COc1cc2c(cc1OC)[C@@]1(C)C(=O)c3cc4c(cc3[C@H]1N(C)C2=O)OCO4` .
## Result No

## Task Please let me know the test result on file for `C/C(=C\c1ccn(-c2ccc(N)cc2)n1)[C@@H]1C[C@@H]2O[C@]2(C)CCC[C@H](C)[C@H](O)[C@@H](C)C(=O)C(C)(C)[C@@H](O)CC(=O)O1` .
## Result Yes

---

- Tested on: U251 CNS
- METHOD_SUMMARY: NCI tumour cell line growth inhibition, 48 h
QUANTITY: TGI

TGI for U251 CNS with input `CN1CCN(Cc2ccc(NC(=O)c3cncc(C#Cc4c(N)ncc5cc(F)ccc45)c3)cc2C(F)(F)F)CC1` equals 2.27 µM

TGI for U251 CNS with input `CCn1c(SCC(=O)NNC(=S)Nc2ccc(F)cc2)nc2ccccc2c1=O` equals > 100 µM

TGI for U251 CNS with input `O=C(NCC#CCO)C(F)(F)F` equals > 100 µM

TGI for U251 CNS with input CC(Oc1ccc(Cl)cc1Cl)C(=O)NN1C(=O)CSC1c1ccc(Cl)cc1 (configuration not stated) equals > 100 µM

TGI for U251 CNS with input `COc1cc(/C=N/NC2=NCCCN2)ccc1O` equals > 100 µM

TGI for U251 CNS with input `O=C(O)CNCc1c2ccccc2[n+]([O-])c2ccccc12` equals > 100 µM

TGI for U251 CNS with input CN(C)CC1CCn2c(c(C3=C(c4cn(C)c5ccccc45)C(=O)NC3=O)c3ccccc32)C1 (configuration not stated) equals 7.64 µM

---

- System: A498 renal
- METHOD_SUMMARY: NCI tumour cell line growth inhibition, 48 h; in the data active means GI50 below about 0.43 µM; inactive means the rest
Field 'call' accepts active, inactive

## Task Please let me know the test result on file for `O=C(Cn1ccnc1[N+](=O)[O-])NCC(F)(F)C(F)(F)F` .
## Result inactive

## Task Please let me know the test result on file for `CC/C(=C(\CC)c1ccc(OCCN(CC)CC)cc1)c1ccc(OCCN(CC)CC)cc1` .
## Result inactive

## Task Please let me know the test result on file for `Nc1ccn([C@@H]2C=C(CO)[C@@H](O)[C@H]2O)c(=O)n1` .
## Result active

## Task Please let me know the test result on file for CC(C)=CCC/C(C)=C/CC/C(=C/COP(=O)(OCc1ccc([N+](=O)[O-])o1)N(C)CCCCCl)C(C)(C)C (stereo unspecified) .
## Result active

## Task Please let me know the test result on file for `O=C(Nc1ccc(Br)c(Cl)c1)c1cc(F)ccc1O` .
## Result active

## Task Please let me know the test result on file for `COC(=O)c1c2c(c(C)[n+]([O-])c1C)C(=O)C(NCc1ccc(F)c(F)c1)=CC2=O` .
## Result inactive

## Task Please let me know the test result on file for CCCCCCCCCCCCCCCCOCCCOP(=O)(O)C1CCCN(O)C1=O (stereo unspecified) .
## Result inactive

## Task Please let me know the test result on file for `CCC[CH2][Sn]([CH2]CCC)([S]C1=NCCS1)[S]C1=NCCS1` .
## Result inactive

## Task Please let me know the test result on file for `COc1ccc(Nc2ccnc(NCCCNc3ccnc4cc(Cl)ccc34)n2)cc1` .
## Result inactive

## Task Please let me know the test result on file for `CN1CCN(Cc2ccc(NC(=O)c3cncc(C#Cc4c(N)ncc5cc(F)ccc45)c3)cc2C(F)(F)F)CC1` .
## Result inactive

## Task Please let me know the test result on file for `C/C(=C\c1c[nH]c2ccccc12)[N+](=O)[O-]` .
## Result inactive
